These measurements were taken from ChEMBL document CHEMBL4616593.

System: DNA
Experiment: Stabilization of dsBE15 oligonucleotide (unknown origin) assessed as drug-DNA adduct formation at 5 to 50 uM incubated for 4 hrs in presence of formaldehyde using [gamma-32P]ATP by phosphorimaging analysis
Assay type: nucleic-acid assay
The source made the active and inactive calls. The rule behind the calls is not given here.
Result category, one only: active, inactive

smiles.str | category
NCCNc1ccc(NCCN)c2c1C(=O)c1c(O)ccc(O)c1C2=O | inactive
NCCCCCNc1ccc(F)c2c1C(=O)c1c(O)ccc(O)c1C2=O | inactive
NCCCCCNc1ccc(NCCCCCN)c2c1C(=O)c1c(O)ccc(O)c1C2=O | inactive

Could you now consider this next compound?
**Q:** Name the outcome recorded for NCCNCCNc1ccc(F)c2c1C(=O)c1c(O)ccc(O)c1C2=O in the assay.
**A:** active
